Values from ChEMBL document CHEMBL5316346

Each entry below lists one item and its recorded EC50 value.
# MEASURED_TARGET: Melanocyte-stimulating hormone receptor (Homo sapiens)
# Sequence (Q01726 whole entry): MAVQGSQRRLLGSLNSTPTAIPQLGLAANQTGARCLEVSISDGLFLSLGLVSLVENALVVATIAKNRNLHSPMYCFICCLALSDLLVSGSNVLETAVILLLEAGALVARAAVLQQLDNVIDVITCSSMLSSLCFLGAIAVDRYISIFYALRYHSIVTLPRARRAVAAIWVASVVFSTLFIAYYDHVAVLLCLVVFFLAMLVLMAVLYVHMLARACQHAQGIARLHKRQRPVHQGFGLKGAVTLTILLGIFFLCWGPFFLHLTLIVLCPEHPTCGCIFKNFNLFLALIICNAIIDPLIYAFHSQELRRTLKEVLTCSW
# METHOD_SUMMARY: Agonist activity at human MC1R stably expressed in human Flp-In-293 cells assessed as cAMP accumulation incubated for 45 mins in presence of IBMX by Lance Ultra cAMP assay
# Type: functional, cell-based
# MEASUREMENT_PARAMETERS: read-out: pEC50 (converted)

# COMPOUND_STRUCTURE, UNIT_ABBREVIATION, EC50
measured = [
    ("C[C@@H]1NC(=O)[C@H](Cc2c[nH]c3ccccc23)NC(=O)[C@H](CCCNC(=N)N)NC(=O)[C@@H](Cc2ccccc2)NC(=O)[C@H](Cc2c[nH]cn2)NC(=O)c2cc([N+](=O)[O-])ccc2SC[C@@H](C(N)=O)NC1=O", "nM", 9.77),
    ("C[C@H]1NC(=O)c2cc([N+](=O)[O-])ccc2SC[C@@H](C(N)=O)NC(=O)[C@H](Cc2c[nH]c3ccccc23)NC(=O)[C@H](CCCNC(=N)N)NC(=O)[C@@H](Cc2ccccc2)NC(=O)[C@H](Cc2c[nH]cn2)NC1=O", "nM", 1.58),
    ("C[C@H]1NC(=O)c2cc(C#N)ccc2SC[C@@H](C(N)=O)NC(=O)[C@H](Cc2c[nH]c3ccccc23)NC(=O)[C@H](CCCNC(=N)N)NC(=O)[C@@H](Cc2ccccc2)NC(=O)[C@H](Cc2c[nH]cn2)NC1=O", "nM", 2.69),
    ("C[C@@H]1NC(=O)c2cc(NC(=S)Nc3ccc4c(c3)C(=O)OC43c4ccc(O)cc4Oc4cc(O)ccc43)ccc2SC[C@@H](C(N)=O)NC(=O)[C@H](Cc2c[nH]c3ccccc23)NC(=O)[C@H](CCCNC(=N)N)NC(=O)[C@@H](Cc2ccccc2)NC(=O)[C@H](Cc2c[nH]cn2)NC1=O", "nM", 20.9),
]
